Source: patent US11680056B2

# TEST_TARGET: p38a/PRAK (Homo sapiens (Human), UniProt Q16539)
# Sequence (Q16539 whole entry): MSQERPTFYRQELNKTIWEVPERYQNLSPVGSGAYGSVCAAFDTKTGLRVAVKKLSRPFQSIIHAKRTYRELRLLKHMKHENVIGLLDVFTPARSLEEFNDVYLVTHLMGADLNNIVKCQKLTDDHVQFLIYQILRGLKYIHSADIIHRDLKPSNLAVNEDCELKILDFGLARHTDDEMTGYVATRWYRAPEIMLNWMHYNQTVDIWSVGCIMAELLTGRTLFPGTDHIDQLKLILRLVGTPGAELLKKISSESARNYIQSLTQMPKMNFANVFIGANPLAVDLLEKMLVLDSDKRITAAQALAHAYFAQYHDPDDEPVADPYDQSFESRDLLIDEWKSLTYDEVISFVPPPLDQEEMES
# METHOD: p38a/PRAK biochemical assay: activation of PRAK by p38, FITC-HSP27 peptide phosphorylation (IMAP FP)
# ASSAY_CONDITIONS: 10-point 1:3 dilution, top dose 300 μM; 60 pM active p38a, 1 nM inactive PRAK, 10 μM ATP, 2 h incubation; read-out: p38a/PRAK Enzyme pIC50 (converted)
Each entry below lists one item and its recorded IC50 value.

See these solved cases before continuing.
(Q) Under p38a/PRAK (Homo sapiens (Human), UniProt Q16539): IC50 value of Cc1cnc(-c2ccnc(C3(CO)CC3)n2)cc1-n1c(C)cc(OCc2ncc(F)cc2F)c(Cl)c1=O (single isomer, unassigned) [Example 21A] ?
(A) > 316 µM

(Q) Param item: Cc1cnc(-c2ccnc(C3(O)CC3)n2)cc1-n1c(C)cc(OCc2ncc(F)cc2F)c(Cl)c1=O (atropisomer, axis not shown) [Example 3]
(A) 5.01 µM

Would you kindly look at the next entry?
(Q) Under p38a/PRAK (Homo sapiens (Human), UniProt Q16539): IC50 value of Cc1cnc(-c2ccnc(C3(O)CCOCC3)n2)cc1-n1c(C)cc(OCc2ncc(F)cc2F)c(Cl)c1=O (single isomer, unassigned) [Example 39B] ?
(A) > 316 µM
